Data origin, for the record: patent US8802866B2

Target: UniProtKB P42338
Sequence (P42338 whole entry): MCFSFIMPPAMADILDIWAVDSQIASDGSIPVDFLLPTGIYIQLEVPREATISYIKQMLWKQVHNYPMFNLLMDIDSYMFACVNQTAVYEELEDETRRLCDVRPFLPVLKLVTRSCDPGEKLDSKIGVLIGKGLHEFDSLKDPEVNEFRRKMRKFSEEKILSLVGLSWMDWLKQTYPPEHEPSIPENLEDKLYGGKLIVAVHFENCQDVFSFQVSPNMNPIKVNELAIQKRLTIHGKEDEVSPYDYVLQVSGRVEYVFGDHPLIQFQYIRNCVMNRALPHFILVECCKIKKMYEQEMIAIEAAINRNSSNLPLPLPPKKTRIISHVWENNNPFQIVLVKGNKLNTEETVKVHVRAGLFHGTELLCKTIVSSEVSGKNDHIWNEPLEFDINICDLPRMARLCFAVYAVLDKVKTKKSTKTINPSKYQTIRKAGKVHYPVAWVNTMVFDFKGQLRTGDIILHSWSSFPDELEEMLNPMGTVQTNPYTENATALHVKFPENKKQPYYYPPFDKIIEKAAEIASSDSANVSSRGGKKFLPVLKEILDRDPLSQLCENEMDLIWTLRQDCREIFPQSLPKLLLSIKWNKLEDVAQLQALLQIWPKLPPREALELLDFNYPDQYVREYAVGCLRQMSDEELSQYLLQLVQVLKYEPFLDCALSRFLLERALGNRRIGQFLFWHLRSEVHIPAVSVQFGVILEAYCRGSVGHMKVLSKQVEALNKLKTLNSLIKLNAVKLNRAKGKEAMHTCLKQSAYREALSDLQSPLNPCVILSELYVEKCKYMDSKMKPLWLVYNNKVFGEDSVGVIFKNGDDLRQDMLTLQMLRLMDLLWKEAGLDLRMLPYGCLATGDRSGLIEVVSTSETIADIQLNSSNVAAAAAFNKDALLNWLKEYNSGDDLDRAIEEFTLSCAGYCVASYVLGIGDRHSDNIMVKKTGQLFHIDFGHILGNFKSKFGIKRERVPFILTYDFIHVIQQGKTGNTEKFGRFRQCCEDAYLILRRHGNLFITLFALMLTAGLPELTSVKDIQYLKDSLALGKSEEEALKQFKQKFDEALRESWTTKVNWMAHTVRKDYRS
Sequence (P27986 whole entry partner): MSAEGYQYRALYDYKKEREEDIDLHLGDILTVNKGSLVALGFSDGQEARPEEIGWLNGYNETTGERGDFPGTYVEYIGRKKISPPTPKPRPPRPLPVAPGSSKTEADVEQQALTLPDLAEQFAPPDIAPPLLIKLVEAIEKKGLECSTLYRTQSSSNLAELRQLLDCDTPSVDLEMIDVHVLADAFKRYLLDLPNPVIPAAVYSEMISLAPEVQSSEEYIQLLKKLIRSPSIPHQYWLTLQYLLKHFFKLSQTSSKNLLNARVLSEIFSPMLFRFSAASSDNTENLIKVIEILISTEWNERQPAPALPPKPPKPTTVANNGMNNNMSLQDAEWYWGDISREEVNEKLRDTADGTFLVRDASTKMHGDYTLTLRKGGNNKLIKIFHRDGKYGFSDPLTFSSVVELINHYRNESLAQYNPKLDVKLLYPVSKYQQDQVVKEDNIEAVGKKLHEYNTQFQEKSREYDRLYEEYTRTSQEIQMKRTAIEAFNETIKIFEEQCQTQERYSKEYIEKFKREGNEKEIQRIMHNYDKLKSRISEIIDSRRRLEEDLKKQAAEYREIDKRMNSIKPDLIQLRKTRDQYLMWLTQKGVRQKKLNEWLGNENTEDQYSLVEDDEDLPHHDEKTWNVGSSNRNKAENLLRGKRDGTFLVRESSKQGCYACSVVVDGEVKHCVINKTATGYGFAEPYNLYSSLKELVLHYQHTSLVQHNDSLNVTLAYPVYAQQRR
Assay: Biochemical PI3Kbeta assay (neomycin SPA, lipid phosphorylation)
Details: human recombinant GST-PI3K
Description: The efficacy of the compounds according to the invention in the inhibition of PI3K-induced lipid phosphorylation can be investigated in the following binding assay. […] After precipitation of the neomycin-coated PVT-SPA beads over 5 minutes at 1500×g, radioactive Ptdlns(3)P is quantified by scintillation counting in a Wallac Micro-Beta™ plate counter.
pIC50: −log10 of the molar value.
Each entry below lists one item and its recorded pIC50 value.

As a guide, the following entries are already answered.
INSERT INTO measurements (compoundstructure, experimentalsystem, measurename, testresult) VALUES
  ('Cn1cc(-c2cc(-c3cnc4ccccc4c3)ccn2)n(-c2ccc(C(C)(C)C(N)=O)cc2)c1=O', 'UniProtKB P42338', 'pIC50', '5.00 to 7.00'),
  ('Cn1cc(-c2cc(-c3cnc4[nH]ccc4c3)ccn2)n(-c2ccccc2C#N)c1=O', 'UniProtKB P42338', 'pIC50', '< 5.00'),
  ('CC(=O)Nc1ncc(-c2ccnc(-c3cn(C)c(=O)n3-c3cccc(C#N)c3)c2)cc1C(F)(F)F', 'UniProtKB P42338', 'pIC50', '< 5.00'),
  ('COc1ccc(-c2ccnc(-c3cn(C)c(=O)n3-c3ccc(N4CCNCC4)c(C(F)(F)F)c3)c2)cn1', 'UniProtKB P42338', 'pIC50', '5.00 to 7.00');

# query: pIC50 of entry Cn1cc(-c2cc(-c3cnc4[nH]ccc4c3)ccn2)n(-c2cc(F)cc(C#N)c2)c1=O
5.00 to 7.00

Which value of pIC50 has been reported for CN1CCN(c2ccc(-n3c(-c4cc(-c5cnc6[nH]c(C(C)(C)C)cc6c5)ccn4)cn(C)c3=O)cc2C(F)(F)F)CC1 in the records?
5.00 to 7.00

Please give the measured pIC50 for this compound: COc1ccc(Cn2c(-c3cc(-c4cnc(N)c(C(F)(F)F)c4)ccn3)cn(C)c2=O)cc1
5.00 to 7.00
